molecular target: c-Myc protein (Homo sapiens); construct: endogenous in cells; host or cells: HL60 cells; assay: Ability of compounds to degrade c-Myc protein in HL60 cells (ELISA); format: cell-based; conditions: HL-60, 1 μM compound, 24 h, read-out: HL60 cells Protein degradation rate (1 μM)
Sequence (P01106 whole entry): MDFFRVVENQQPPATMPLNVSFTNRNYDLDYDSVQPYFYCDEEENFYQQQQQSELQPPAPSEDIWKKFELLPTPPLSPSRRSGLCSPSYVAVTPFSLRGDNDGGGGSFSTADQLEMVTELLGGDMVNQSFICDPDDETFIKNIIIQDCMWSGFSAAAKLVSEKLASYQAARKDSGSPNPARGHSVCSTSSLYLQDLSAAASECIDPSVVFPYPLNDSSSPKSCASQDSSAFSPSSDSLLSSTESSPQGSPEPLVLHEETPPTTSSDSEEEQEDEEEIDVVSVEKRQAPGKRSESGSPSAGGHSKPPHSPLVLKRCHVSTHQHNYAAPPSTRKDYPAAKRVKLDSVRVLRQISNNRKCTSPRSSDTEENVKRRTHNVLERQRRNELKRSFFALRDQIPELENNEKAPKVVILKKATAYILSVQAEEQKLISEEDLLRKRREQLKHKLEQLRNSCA
metric-name: inhibition at 1 µM

compound	metric-name	assay-result
O=C(Cc1cccc(Cl)c1Cl)NCc1ccc(CNC(=O)c2ccc3c(c2)C(=O)N(C2CCC(=O)NC2=O)C3=O)cc1 (stereo not shown) [A60]	inhibition at 1 µM	10 to 30%
O=C1CCC(N2C(=O)c3ccc(C(=O)NCc4ccc(CNC(=O)C5(c6ccccc6Br)CC5)cc4)cc3C2=O)C(=O)N1 (stereo not shown) [A70]	inhibition at 1 µM	60 to 90%
O=C(Cn1c2ccccc2c2cccnc21)NCc1ccc(COCc2ccc3c(c2)C(=O)N(C2CCC(=O)NC2=O)C3=O)cc1 (stereo not shown) [A192]	inhibition at 1 µM	60 to 90%

As a next step, examine the compound that follows.
Looking up CC(=O)N(CCn1c2ccccc2c2cccnc21)Cc1ccc(CNC(=O)c2ccc3c(c2)C(=O)N(C2CCC(=O)NC2=O)C3=O)cc1 (stereo not shown) [A82] , I see its inhibition at 1 µM listed as 60 to 90%

Values compiled from patent US20240350643A1.
